- Tested on: Dd2
- Procedure Details: qHTS profiling for inhibitors of Plasmodium falciparum proliferation (AID 504749); note: nearly all actives have a fitted effect of over 60% in size
- Condition Description: P. falciparum in erythrocytes, SYBR Green DNA, 72 h; series mostly up to 28.7 µM
Results filed as inconclusive are left out. Calls of active or inactive are those of the source. Calls come from the whole dose curve; as a rule, active = well fitted inhibition curve with a large enough effect; inconclusive = small, poorly fitted or top-dose-only effect; inactive = flat fitted curve, though single readings scatter.
Log the outcome using a class from yes (1) = active, no (0) = inactive

# lookup: test call for Cc1ccc(C(=O)C(C)CN2CCCCC2)cc1 (centres undefined) no (0)

Called result for O=C(CCN1CCC(c2ccccc2)C1)c1ccc2c(c1)OCCO2 (centres undefined) no (0)

So what was the verdict on `CCN(CCCc1ccccc1)CCCc1ccccc1` in this test? yes (1)

Could you kindly confirm the outcome this assay logged for `CCN1CCN(c2cc3c(cc2F)c(=O)c(C(=O)O)cn3C2CC2)CC1` ? no (0)

Which outcome was entered for the compound `CCCCCCC[N+](CC)(CC)CCCCc1ccc(Cl)cc1` in this test? yes (1)

Outcome logged for `C#C[C@]1(OC(C)=O)CC[C@H]2[C@@H]3CCC4=C[C@@H](OC(C)=O)CC[C@@H]4[C@H]3CC[C@@]21C` in this assay: no (0)

What did the test return for `CCN1CCCC1=O` ? no (0)

Short answer needed: outcome of this test for `Nc1cc(Cl)c(NC2=NCCN2)c(Cl)c1` ? no (0)

For `COc1cccc2c1C(=O)c1c(O)c3c(c(O)c1C2=O)C[C@@](O)(C(C)=O)C[C@@H]3O[C@H]1C[C@H](N)[C@H](O)[C@H](C)O1` , which call appears in the assay record? yes (1)

Which result was noted for this compound in the test: CC(O)C(=O)O (centres undefined) no (0)

Recorded test call requested for `Cc1cccn2c(=O)c(-c3nnn[nH]3)cnc12` no (0)

Please indicate how the test categorized `CC(=O)OCC(=O)NCCCOc1cccc(CN2CCCCC2)c1` . no (0)

# lookup: test call for `CCOC(=O)n1ccn(C)c1=S` no (0)

Please indicate how the test categorized `CN=C(NC#N)NCCSCc1csc(N=C(N)N)n1` . no (0)

What is the recorded call for this compound in the test? `COC1=CC(=O)C[C@@H](C)[C@]12Oc1c(Cl)c(OC)cc(OC)c1C2=O` no (0)

What call does the record list for `CCCCCCc1ccc(O)cc1O` ? no (0)

How was `CCCCOc1ccc(C(=O)CCN2CCCCC2)cc1` classified in this test? no (0)

# outcome recorded in this test, key = `CN(C(=O)CN(CCO)CC(=O)N(C)C(C)(C)Cc1ccccc1)C(C)(C)Cc1ccccc1` no (0)

Test call, this compound: `CCCn1c(=O)[nH]c(=O)c2[nH]cnc21` no (0)

Which outcome was entered for the compound `Cc1cc(=O)n(-c2ccccc2)n1C` in this test? no (0)

Identify the outcome logged in this assay for the compound shown: `Cc1ccnc(NS(=O)(=O)c2ccc(N)cc2)n1` no (0)

Kindly provide the recorded test outcome for the following compound: `NCCCC[C@H](N[C@@H](CCc1ccccc1)C(=O)O)C(=O)N1CCC[C@H]1C(=O)O` no (0)

Dear all, I need the recorded test outcome for `CN1CCN(CCCN2c3ccccc3Sc3ccc(S(=O)(=O)N(C)C)cc32)CC1` , thank you. yes (1)

Given CN1C(CCl)Nc2cc(Cl)c(S(N)(=O)=O)cc2S1(=O)=O (centres undefined) , state the outcome it received in this test. no (0)

Please state the recorded outcome for this compound: `CCCCC1=NC2(CCCC2)C(=O)N1Cc1ccc(-c2ccccc2-c2nn[nH]n2)cc1` no (0)

Assay outcome for `COc1cc(-c2ccc(=O)[nH]n2)ccc1OC(F)F` : what was it? no (0)

For `O=C(COc1ccc(Cl)cc1)N1CCN(Cc2ccc3c(c2)OCO3)CC1` , which call appears in the assay record? no (0)

What call does the record list for `O=C(Nc1ccc(Cl)c(Cl)c1)C1CC1` ? no (0)

Record lookup: outcome of this test for `CCCCOc1cc(C(=O)NCCN(CC)CC)c2ccccc2n1` ? no (0)
